Data provenance is PubChem BioAssay (NCI).

Tested on: A498 renal
Test: NCI tumour cell line growth inhibition, 48 h; in the data active = GI50 below about 0.43 µM; inactive = the rest
Please answer using one outcome listed in active, inactive

Solved entries:
[
  {
    "molecule": "N#Cc1c(-c2ccccc2)nc(SCC(O)CN2CCOCC2)nc1N1CCOCC1 (stereo not drawn)",
    "class": "inactive"
  },
  {
    "molecule": "[pH]1p2[pH]p3p1p3[pH]2.c1cc[c]([Ge]([c]2ccccc2)[c]2ccccc2)cc1.c1cc[c]([Ge]([c]2ccccc2)[c]2ccccc2)cc1.c1cc[c]([Ge]([c]2ccccc2)[c]2ccccc2)cc1",
    "class": "inactive"
  },
  {
    "molecule": "N#Cc1ncc(-c2ccc(C(F)(F)F)cc2)c(NC2CCCCCC2)n1",
    "class": "inactive"
  },
  {
    "molecule": "COc1ccc(-c2cc(-c3ccc(Cl)cc3)nc(SCCCC(=O)NO)n2)cc1OC",
    "class": "inactive"
  },
  {
    "molecule": "CC(=O)[CH-]C(=O)c1ccccc1.CC(=O)[CH-]C(=O)c1ccccc1.CC[C@H](CCC(C)[C@H]1CCC2[C@@H]3CC=C4C[C@@H]([O-])CC[C@]4(C)C3CC[C@@]21C)C(C)C.CC[C@H](CCC(C)[C@H]1CCC2[C@@H]3CC=C4C[C@@H]([O-])CC[C@]4(C)C3CC[C@@]21C)C(C)C.Cl.[Ti+4] (stereo partly drawn)",
    "class": "inactive"
  },
  {
    "molecule": "CCN(CC)Cc1cc(Nc2ccnc3ccc(OC)cc23)ccc1O",
    "class": "inactive"
  }
]

Switching to the query record.
Please state the recorded outcome for this molecule: `Cn1ccc(S(=O)(=O)N2CCC[C@H](Nc3nccc(-c4c(-c5cccc(O)c5)nc5occn45)n3)C2)n1`
inactive
